Sourced from ChEMBL document CHEMBL1828571

Target: Sodium-dependent dopamine transporter (Homo sapiens)
Sequence (Q01959 whole entry): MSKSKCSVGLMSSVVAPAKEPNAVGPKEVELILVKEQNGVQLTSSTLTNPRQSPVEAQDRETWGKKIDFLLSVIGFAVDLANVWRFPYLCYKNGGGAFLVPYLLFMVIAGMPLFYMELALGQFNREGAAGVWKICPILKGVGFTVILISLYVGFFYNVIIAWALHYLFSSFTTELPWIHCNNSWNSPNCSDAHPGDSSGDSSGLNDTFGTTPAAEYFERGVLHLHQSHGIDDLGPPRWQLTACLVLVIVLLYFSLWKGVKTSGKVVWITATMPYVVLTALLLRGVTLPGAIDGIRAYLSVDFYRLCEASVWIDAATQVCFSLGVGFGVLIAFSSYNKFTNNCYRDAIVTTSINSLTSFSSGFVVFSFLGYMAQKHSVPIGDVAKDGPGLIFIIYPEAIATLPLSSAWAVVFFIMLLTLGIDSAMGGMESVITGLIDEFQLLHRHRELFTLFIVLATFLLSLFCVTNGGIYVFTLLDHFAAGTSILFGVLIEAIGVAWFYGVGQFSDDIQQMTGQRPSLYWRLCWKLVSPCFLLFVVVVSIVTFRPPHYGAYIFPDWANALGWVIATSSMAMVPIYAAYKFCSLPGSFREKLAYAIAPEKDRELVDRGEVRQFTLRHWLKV
Test: Displacement of [3H]-WIN-35428 from human DAT expressed in CHO cells at 1 uM
Assay type: cell-based
Please provide measured inhibition for the entries that follow.
Numbers only, in %.

Could I get inhibition for every one of these entries?
1. O=S1(=O)N(CC2CNCCO2)c2ccccc2N1c1ccccc1 (racemic)
2. O=S1(=O)N(CCC2CNCCO2)c2cccc(F)c2N1c1ccccc1F (stereo not drawn)
3. O=S1(=O)N(CCC2CCCNC2)c2ccccc2N1c1ccccc1 (racemic)
4. O=S1(=O)N(CCC2CNCCO2)c2ccc(F)cc2N1c1ccccc1F (stereo not drawn)
5. O=S1(=O)N(CCC2CNCCO2)c2cc(F)ccc2N1c1ccccc1F (stereo not drawn)
6. O=S1(=O)N(CCC2CNCCO2)c2c(F)cccc2N1c1ccccc1F (stereo not drawn)

1. 32
2. 20
3. 95
4. 23
5. 43
6. 50

Okay, here is my list. What is inhibition for each of these?
1. CNC[C@@H](CCN1c2ccccc2N(c2ccccc2)S1(=O)=O)OC
2. CN1CCOC(CN2c3ccccc3N(c3ccccc3)S2(=O)=O)C1 (racemic)

39
77
